Biological target: histidine tag-conjugated soluble CD16a (V) (human) (UniProt P08637)
Sequence (P08637 other isoform, or with tags, fused parts or gaps limits assumed): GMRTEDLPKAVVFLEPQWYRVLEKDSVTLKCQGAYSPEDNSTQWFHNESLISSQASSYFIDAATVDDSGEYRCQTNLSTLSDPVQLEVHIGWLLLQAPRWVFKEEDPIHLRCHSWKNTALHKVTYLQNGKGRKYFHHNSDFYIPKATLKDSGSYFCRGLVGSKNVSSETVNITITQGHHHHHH
Experiment: ELISA, soluble CD16a-His captured by anti-Tetra-His antibody, anti-human IgG-HRP detection
QUANTITY_MEASURED: EC50 (µg/mL)
A number alone suffices; assume µg/mL.

Known EC50 results, listed for orientation:
INSERT INTO results (binder, quantitative_readout) VALUES
  ('anti-Hp antibody #96-6 (antibody, V domains shown, Recombinant human IgG1/kappa antibody; also called clone #96-6; Labeled #96-6) VH: EVQLLESGGGLVQPGGSLRLSCEASGSSVSSHFMTWVRQSPGKGLEWVSSISPNPAYTYYANSVKGRFTISRDNSKNMLYLQMNDLRAEDTARYYCARRSDFDTWGQGTMLTVSS VL: DIQMTQSPSAMSASVGDRVTITCRASRYIGKDLAWFQQKPGEVPKRLIYDASSLQSGVPSRFSGSGSGTEFTLTVSNLQPEDLGTYYCQHYYTFPLTFGPGTKVDIK', 0.473),
  ('anti-Hp antibody #27 (antibody, V domains shown, Recombinant human IgG1/kappa antibody; also called clone #27; #27 antibody) VH: EQQLVESGGGLVQPGRSLTLSCVASGFTFGDYAMGWVRQAPGKGLEWVSSISSDALYKGYVDSVKGRFTVSRDNAKNSLYLQMDNLRTEDTAFYYCTKDLRSGNFGQYGDWGQGTLVTVSS VL: AIQMTQSPSSLSASVGDRVTITCRASQGIGSDLTWYQQEPGKAPKLLIYAASTLQSGVPSRFSGGGSGTDFTLTISSLQPEDAATYYCLQSHGYPLTFGQGTKLEIK', 0.763),
  ('anti-Hp antibody #105 (antibody, V domains shown, Recombinant human IgG1/kappa antibody) VH: QVHLQQWGAGLLKPSETLSLTCNVYGSSLSQYFWNWIRQPPGKGLEWMGRITSGGSTNYNPSLESRVTIIVDTFKNQFSLKLVSVTAADTAVYYCARGPFVEGAAPTVLGTGFSIWGQGTMVTVSS VL: EIVLTQSPGTLSLSPGERATLSCRASQSVNNNYLAWYQQKPGQAPRLLIYDASKRATGIPDRFSGSGSGTDFTLTISRLEPEDFAVYYCQQYGHSRPYTFGQGAKLEIK', 0.405);

The binder identified as anti-Hp antibody #6 (antibody, V domains shown, Recombinant human IgG1/kappa antibody; also called clone #6; #6 antibody) VH: EVQLLESGGGLVQPGGSLKLSCVASEFTFSNYAMSWVRQAPGKGLEWVSTFSSGGSRTFYADSVRGRFTISRDNSNNMLFLQIDSLRAEDTAVYYCAKAQFVGHWAQYNYWGQGALVTVSS VL: DIQMTQSPSSLSASVGDRVAITCRASQGIRNYLAWYQQKPGKVPKLLIYDAFILQSGVPSRFSGSGSGTDFTLTISSLQPEDVATYYCQKSDSPPLTFGGGTKVEIK registered its EC50 at 0.805

The binder identified as anti-Hp antibody #4 (antibody, V domains shown, also called clone #4; #4 antibody) VH: EVHLLESGGGLVQPGGSLRLSCQASGFTFNSNAMSWVRRAPGKGLEWISSIGANTNYIYTADSVKGRFTISRDNSKNTLYLQMNSLRAEDTAAYYCAKNRDRYSYDAWSVWGQGTTVTVSS VL: DIQMTQSPSTLSASVGDRVTITCRASQSIDIWLAWYQQKPGKAPKLLIYEASSLESEVPSRFSGSGSGTEFTLTISSLQPDDFATYYCQAYNSNYPYAFGQGTNLEIK registered its EC50 at 1.99

Source listed as patent US20190276521A1.
